Hello, the source for this data is ChEMBL document CHEMBL1128300, in case you need it.

System: Mus musculus
Experiment: Concentration of the 9-[2-(Phosphonomethoxy)ethoxy]adenine in the blood following oral administration in mice
Assay type: ADME, organism-based
Design: unit not given here
Details: in vivo
quantity_kind: AUC

INSERT INTO measurements (smiles_structure, measurement_target, quantity_kind, numeric_value) VALUES
  ('CC(=O)Oc1ccc(COP(=O)(COCCOn2cnc3c(N)ncnc32)OCc2ccc(OC(C)=O)cc2)cc1', 'Mus musculus', 'AUC', 4),
  ('CC(C)(CCl)C(=O)OCOP(=O)(COCCOn1cnc2c(N)ncnc21)OCOC(=O)C(C)(C)CCl', 'Mus musculus', 'AUC', 0),
  ('Cc1ccccc1OP(=O)(COCCOn1cnc2c(N)ncnc21)Oc1ccccc1C', 'Mus musculus', 'AUC', 11);
